Tested on: Zika virus NS2B-NS3 protease (linked construct)
Experiment: Primary screen NINDS Rhodamine qHTS for Zika virus inhibitors (AID 1347160); further: nearly all actives have a fitted effect of over 55% in size
Settings: purified NS2B-NS3 protease, Rhodamine110 substrate fluorescence; series mostly up to 57.1 µM
Excerpt: Avindra Nath, Ph.D., National Institute of Neurological Disorders and Stroke (NINDS), Bethesda, MD Radhakrishnan Padmanabhan, Ph.D., Georgetown University (GU), Washington D.C. Zika Virus causes congenital defects, including microcephaly and is associated with Guillain-Barre syndrome, eningoencephalitis and myelitis in infected adult. […]
Results filed as inconclusive are left out. Calls of active or inactive are those of the source. The call rests on the fitted dose curve; in most records, active means well fitted inhibition curve with a large enough effect; inconclusive means small, poorly fitted or top-dose-only effect; inactive means no such curve, though single readings can be large or run the other way.
Give your call using only these classes: True (active), False (inactive)

NS(=O)(=O)c1ccc(-n2nc(C(F)(F)F)cc2-c2ccc(Cl)cc2)cc1 False
O=C(Nc1ccc2[nH]ncc2c1)C1CCC1 False
Cc1onc(-c2c(F)cccc2Cl)c1C(=O)N[C@@H]1C(=O)N2[C@@H]1SC(C)(C)[C@@H]2C(=O)O False
COc1cc(CNC(=O)CCCC/C=C/C(C)C)ccc1O False
O=C(O)c1cc(O)c(O)c(O)c1 True

Task item: Which outcome did this test record for the compound CC(=O)c1ccc(OCC(=O)N2CCCCC2)cc1 ?
Reply: False

---

Test: Counterscreen qHTS for small molecule stabilizers of the endoplasmic reticulum resident proteome: GLuc-NoTag assay (AID 1508627)
Conditions: Gaussia luciferase NoTag secretion counterscreen, luminescence, thapsigargin 100 nM for final 4 h; series mostly up to 76.4 µM
From the text: Assay Provider: Brandon K. Harvey Ph.D. National Institute on Drug Abuse, National Institutes of Health, Baltimore, MD Endoplasmic reticulum (ER) dysregulation is associated with human pathologies including neurodegenerative, cardiovascular, muscular, and diabetic conditions. […] To identify such compounds, we performed a quantitative high-throughput screen (qHTS) using the SERCaMP assay, which monitors secretion of ER resident proteins triggered by calcium depletion. […]
Records with an inconclusive call do not appear. Activity calls are given as the source filed them. The call rests on the fitted dose curve; in most records, active means well fitted inhibition curve with a large enough effect; inconclusive means small, poorly fitted or top-dose-only effect; inactive means no such curve, though single readings can be large or run the other way.
Use one of these outcomes when replying: class 1 for active, class 0 for inactive

Worked set:
Fc1ccc(C(OCCCc2cnc[nH]2)c2ccc(F)cc2)cc1 class 0
CCCCCCCC/C=C\CCCCCCCC(=O)NCCO class 0
Cc1ccc(O)c(N=Nc2ccccc2)n1 class 0
Cn1cc(C2=C(c3ccc(Cl)cc3Cl)C(=O)NC2=O)c2ccccc21 class 1
CN1[C@@H](CC(=O)c2ccccc2)CCC[C@H]1C[C@H](O)c1ccccc1 class 0

Task item: // param item: C=C[C@H]1CN2CC[C@@H]1C[C@@H]2[C@@H](O)c1ccnc2ccc(OC)cc12 ; yields the recorded call
Reply: class 1

---

Experiment: qHTS assay for small molecule disruptors of the mitochondrial membrane potential - 1 hr assay (AID 651754); further: nearly all actives have a fitted effect of over 35% in size
Settings: series mostly up to 92.2 µM
Inconclusive results are not listed. The source made the active and inactive calls. The call rests on the fitted dose curve.
Write down one outcome, taken from TRUE = active, FALSE = inactive

Below are worked cases with known answers.
COc1cc(/C=C/C(=O)CC(=O)/C=C/c2ccc(O)c(OC)c2)ccc1O TRUE
Nc1ccc(O)c([N+](=O)[O-])c1 TRUE
C#C[C@]1(O)CC[C@H]2[C@@H]3CCc4cc(O)ccc4[C@H]3CC[C@@]21C FALSE

Now consider a different compound.
Task item: Hi team, can someone confirm the assay call for O=C(O)c1cc(O)c(O)c(O)c1 ?
Reply: FALSE

---

Assay: NS1 protein of Zika virus - qHTS assay to identify small molecule inhibitors in human HEK 293 cells (AID 1347053);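 further: plate controls were infected untreated cells for no effect and uninfected cells for full effect; nearly all actives have a fitted effect of over 55% in size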
Conditions: HEK293 ZIKV MR766 infection, NS1 TR-FRET, 24 h; series mostly up to 46.1 µM
Records with an inconclusive call do not appear. Calls of active or inactive are those of the source. Calls follow the shape of the dose curve; as a rule, active = well fitted inhibition curve with a large enough effect; inconclusive = small, poorly fitted or top-dose-only effect; inactive = no such curve, though single readings can be large or run the other way.
Give your call using only these classes: 1 = active, 0 = inactive

compound	discrete.label
Nc1cc(-c2ccncc2)c[nH]c1=O	0
C[N+]1(C)CCC(OC(=O)C(c2ccccc2)c2ccccc2)CC1	0
CCC1C(=O)OCC1Cc1cncn1C (stereo not drawn)	0

Task item: Can you look up the reported call for CSc1nc(N)c2ncn([C@@H]3O[C@H](COP(=O)(O)OP(=O)(O)OP(=O)(O)O)[C@@H](O)[C@H]3O)c2n1 for me?
Reply: 0

Task item: # fetch the recorded call for C#CC1(O)CC[C@H]2[C@@H]3CCC4=CCCC[C@@H]4[C@H]3CC[C@@]21C (stereo partly drawn) here
Reply: 0

Task item: // outcome(item) with item = C/C(=N\O)c1ccc(OCC(=O)N2CCCCC2)cc1
Reply: 0

Task item: Kindly provide the recorded test outcome for the following compound: CCCN(CC1CC1)c1nc(C)nc(Nc2c(Cl)cc(Cl)cc2Cl)c1Cl
Reply: 0

---

Test: Cell Viability - SH-SY5Y (AID 544);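 further: cells exposed to compound for 40 hours; nearly all actives have a fitted effect of over 55% in size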; further: potency means the concentration at half of the fitted maximal effect
Settings: SH-SY5Y neuroblastoma cell viability
Results filed as inconclusive are left out. Calls of active or inactive are those of the source. Calls come from the whole dose curve; as a rule, active = well fitted cell-killing curve with a large enough effect; inconclusive = small, poorly fitted or top-dose-only effect; inactive = flat fitted curve, though single readings scatter.
measure: Potency

Known Potency results, listed for orientation:
compound	Potency
c1cnc2c(c1)ccc1cccnc12	5.01 µM (active)
Nc1ccc([N+](=O)[O-])cc1O	inactive
CC(C)NCC(O)COc1cccc2ccccc12 (configuration not stated)	inactive
CCCOC(=O)c1ccc(O)cc1	inactive
CN(C)CCC(c1ccc(Cl)cc1)c1ccccn1 (configuration not stated)	inactive

The recorded Potency for C#C[C@]1(O)CC[C@H]2[C@@H]3CCc4cc(O)ccc4[C@H]3CC[C@@]21C is 31.6 µM (active)

For S=c1[nH]c2ccccc2s1 the compound record lists Potency as inactive

The compound identified as CC1(C)S[C@@H]2[C@H](NC(=O)[C@H](N)c3ccccc3)C(=O)N2[C@H]1C(=O)O registered its Potency at inactive

Per the records, this compound ( CN(C)c1ccc(C(=C2C=CC(=[N+](C)C)C=C2)c2ccccc2)cc1 ) has Potency equal to 0.1 µM (active)

Item: O=C(O)/C=C\C(=O)O | Potency: inactive

Briefly, Potency measured for Nc1ccc(O)c(C(=O)O)c1 : inactive

# compound c1ccc2sc(SSc3nc4ccccc4s3)nc2c1 ; its Potency = inactive

---

Tested on: Zika virus NS2B-NS3 protease (linked construct)
Test: Confirmatory screen NINDS AMC qHTS for Zika virus inhibitors (AID 1347152); further: nearly all actives have a fitted effect of over 70% in size
Conditions: Purified linked NS2B-NS3, AMC substrate fluorescence; series mostly up to 56.6 µM
Results filed as inconclusive are left out. Activity calls are given as the source filed them. Calls come from the whole dose curve; as a rule, active = well fitted inhibition curve with a large enough effect; inconclusive = small, poorly fitted or top-dose-only effect; inactive = flat fitted curve, though single readings scatter.
Your reply should match one of these outcome classes. active, inactive

S=c1[nH]c(-c2ccccc2)cn1-c1ccccc1 inactive
CN1CCN(c2cc3c(nn2)Oc2ccccc2N3C)CC1 active
O=C1NC(=O)/C(=C/c2ccc(-c3ccc(F)cc3O)o2)S1 inactive
Cn1c(=O)c2[nH]c(-c3ccccc3)nc2n(C)c1=O active
Oc1cc2c(cc1O)CN(C(=S)NCCc1ccc(Cl)cc1)CCC2 inactive

Task item: Recorded test call requested for O=C(NOCC1CC1)c1cc(Br)c(F)c(F)c1Nc1ccc(I)cc1Cl
Reply: inactive

Task item: How did this test come out for COc1ccc(Br)cc1S(=O)(=O)NC(=O)/C=C/c1ccccc1Cc1ccc2ccccc2c1 ?
Reply: active

Task item: Entry COC(=O)C1=C(C)NC(C)=C(C(=O)OC)C1c1cccc(NC(=O)NCCCN2CCC(c3cccc(OC)c3)CC2)c1 : call = ?
Reply: inactive

---

Experiment: qHTS assay for cell viability of the p53RE-bla HCT-116 cell line (AID 743292); further: nearly all actives have a fitted effect of over 55% in size
Conditions: p53RE-bla HCT-116 viability, ATP luminescence, 16 h; series mostly up to 95 µM
Method: U.S. Tox21 Program National Center for Advancing Translational Sciences [NCATS] NIH Chemical Genomics Center [NCGC] U.S. Environmental Protection Agency [EPA] National Institutes of Environmental Health Sciences [NIEHS] National Toxicology Program [NTP] […] Tox21 Assay Protocol Summary: Cell viability after compound treatment was measured using a luciferase-coupled ATP quantitation assay (CellTiter-Glo viability assay, Promega, Madison, WI) in CellSensor p53RE-bla HCT-116 cell line (Invitrogen). […]
Inconclusive results are not listed. Activity calls are given as the source filed them. Calls follow the shape of the dose curve; as a rule, active = well fitted cell-killing curve with a large enough effect; inconclusive = small, poorly fitted or top-dose-only effect, or effect the other way; inactive = flat fitted curve, though single readings scatter.
Respond only with the outcome that fits, drawn from active, inactive

Please review the entries below; each comes with its answer.
compound	discrete.label
CCCCCCCCCCCCCCCCCC(=O)O	inactive
CN(C)CCC(c1ccc(Cl)cc1)c1ccccn1 (stereo unspecified)	inactive
O=C(O)[C@H](O)[C@@H](O)[C@H](O)[C@H](O)CO	inactive
c1ccc2sc(SSc3nc4ccccc4s3)nc2c1	inactive
Oc1ccccc1O	inactive

Task item: I would be grateful if you could indicate the recorded call for C#C[C@]1(O)CC[C@H]2[C@@H]3CCc4cc(O)ccc4[C@H]3CC[C@@]21C .
Reply: inactive

Task item: Hi, do you know how CN(C)c1ccc(C(=C2C=CC(=[N+](C)C)C=C2)c2ccccc2)cc1 came out in this test?
Reply: active

Task item: Check the results log: what was the call for CCCCCCCCCCCCCCCC(=O)OC(C)C ?
Reply: inactive

Task item: What did this assay record as the result for O=c1cc(-c2ccccc2)oc2ccccc12 ?
Reply: inactive

Task item: Kindly provide the recorded test outcome for the following compound: CN1CCC[C@H]1c1cccnc1
Reply: inactive

Task item: Which outcome did this test record for the compound NCCO ?
Reply: inactive

Task item: Check the results log: what was the call for Nc1ccc(O)c(C(=O)O)c1 ?
Reply: inactive
